system: biotinyl-Ile-oxazolone; test: self-aminoacylation, catalytic enhancement (BIO) (fold over background); higher = more active; k-Seq, kA / k0A0; sequences stand for … in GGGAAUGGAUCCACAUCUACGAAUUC…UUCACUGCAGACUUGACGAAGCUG
Variants at the floor of the assay were thinned out.
Property: self-aminoacylation
Just the number, please, no unit attached.

For orientation, consider the following solved cases.
[
  {
    "Sequence chain": "CUAUUUCAAACAAUCGGUGUG [Fam1A.1 aminoacylation ribozyme variant]",
    "self-aminoacylation": 0.727
  },
  {
    "Sequence chain": "ACUUACCUAGGUCAUCGGGUG [Fam2.2 aminoacylation ribozyme variant]",
    "self-aminoacylation": 7.28
  },
  {
    "Sequence chain": "AUUCACCUAGGACAUAGGGUG [Fam2.2 aminoacylation ribozyme variant]",
    "self-aminoacylation": 2.06
  },
  {
    "Sequence chain": "CCUCACUUCCAGCAAUCGGUC [Fam1B.1 aminoacylation ribozyme variant]",
    "self-aminoacylation": 1.05
  },
  {
    "Sequence chain": "ACGUUUGCAAAUAGUCGCAAG [Fam3.1 aminoacylation ribozyme variant]",
    "self-aminoacylation": 1.57
  }
]

Qu. Need self-aminoacylation of AAGUUUGCUAAGAGUGGCAAG [Fam3.1 aminoacylation ribozyme variant] , thanks.
Ans. 0.861

Qu. I have this sequence here, CUACUACAAACUAUCGGUCUG [Fam1A.1 aminoacylation ribozyme variant] , and I need its recorded self-aminoacylation.
Ans. 0.869

Qu. Reported self-aminoacylation, sequence AAGUUUGGUAAUAGUCGCAAG [Fam3.1 aminoacylation ribozyme variant] : ____
Ans. 1.32

Qu. // returns reported self-aminoacylation for input AUUGCCCUGGUCAUCGAGAGA [Fam2.1 aminoacylation ribozyme variant]
Ans. 1.2

---

Recorded self-aminoacylation values for a group of sequences are listed next.
test system: biotinyl-Met-oxazolone; assay: self-aminoacylation, catalytic enhancement (BMO) (fold over background); higher = more active; k-Seq, kA / k0A0; sequences stand for … in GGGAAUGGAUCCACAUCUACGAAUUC…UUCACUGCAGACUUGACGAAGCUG
Fewer inactive variants are shown than the library holds.
Write the number on its own, no unit after it.

Past entries and their recorded results:
[
  {
    "Sequence chain": "AUUCACCUAGAUCAUCCGGUG [Fam2.2 aminoacylation ribozyme variant]",
    "Test target": "biotinyl-Met-oxazolone",
    "Numeric result": 3.41
  },
  {
    "Sequence chain": "AUUCACCUAGGCAAUCGGGUG [Fam2.2 aminoacylation ribozyme variant]",
    "Test target": "biotinyl-Met-oxazolone",
    "Numeric result": 3.95
  },
  {
    "Sequence chain": "CCACACUUCAAUCCAUCGGUC [Fam1B.1 aminoacylation ribozyme variant]",
    "Test target": "biotinyl-Met-oxazolone",
    "Numeric result": 0.824
  }
]

Now take the following sequence into account.
Qu. For the sequence shown here, GUACUUCAAAGAAUCGGUCUG [Fam1A.1 aminoacylation ribozyme variant] , give the reported self-aminoacylation.
Ans. 1.07

---

system: biotinyl-Trp-oxazolone; assay: self-aminoacylation, catalytic enhancement (BWO) (fold over background); higher = more active; k-Seq, kA / k0A0; sequences stand for … in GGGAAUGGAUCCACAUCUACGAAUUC…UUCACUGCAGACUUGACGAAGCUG
This sample holds only a part of the variants without activity.
// map self-aminoacylation onto a label; ranges low bracket = under 1, middle bracket = from 1 up to 6, high bracket = 6 and over

[
  {
    "Sequence chain": "CUUCACCUAAGUCAUCGGGUG [Fam2.2 aminoacylation ribozyme variant]",
    "Assigned label": "middle bracket"
  },
  {
    "Sequence chain": "AUUCACCUAGGGCAACGGGUG [Fam2.2 aminoacylation ribozyme variant]",
    "Assigned label": "middle bracket"
  },
  {
    "Sequence chain": "AUUACCCUGGUCGUCGGGUGA [Fam2.1 aminoacylation ribozyme variant]",
    "Assigned label": "middle bracket"
  },
  {
    "Sequence chain": "CUCCUGCAAACAAUCGGUCUG [Fam1A.1 aminoacylation ribozyme variant]",
    "Assigned label": "low bracket"
  },
  {
    "Sequence chain": "AAGUUUUCUAAUAGUCGCAAA [Fam3.1 aminoacylation ribozyme variant]",
    "Assigned label": "middle bracket"
  }
]

Qu. Note: place this sequence into its band. Item: CCACUUCAAAGAAUCGGUCUG [Fam1A.1 aminoacylation ribozyme variant]
Ans. high bracket

Qu. Input AUUCACCUAGGUCCUCGGGGG [Fam2.2 aminoacylation ribozyme variant] ; output its category
Ans. middle bracket

Qu. Looking at AUACGCCUAGGUCAUCGGGUG [Fam2.2 aminoacylation ribozyme variant] , which class would you pick?
Ans. high bracket

Numbers sourced from the supplement of paper PMC9233669.
